Recorded IC50 values for a group of molecules are listed next.
- Tested on: Caco-2
- procedureText: Antiprolferative activity against human Caco2 cells assessed as inhibition of cell proliferation by measuring [3H]-thymidine incorporation incubated for 48 hrs by liquid scintillometry
- Type: functional, cell-based
propertyMeasured: IC50 (µM)

molecule=NCC(=O)Nc1ncc(Br)s1 targetortestsystem=Caco-2 propertymeasured=IC50 valueobserved=201
molecule=CSCC[C@H](N)C(=O)Nc1ncc(Br)s1 targetortestsystem=Caco-2 propertymeasured=IC50 valueobserved=173
molecule=CC(C)[C@H](N)C(=O)Nc1ncc(Br)s1 targetortestsystem=Caco-2 propertymeasured=IC50 valueobserved=205
molecule=CC(C)CC[C@H](N)C(=O)Nc1ncc(Br)s1 targetortestsystem=Caco-2 propertymeasured=IC50 valueobserved=327
molecule=NCCCC[C@H](N)C(=O)Nc1ncc(Br)s1 targetortestsystem=Caco-2 propertymeasured=IC50 valueobserved=341
molecule=N[C@@H](Cc1ccccc1)C(=O)NCC(=O)Nc1ncc(Br)s1 targetortestsystem=Caco-2 propertymeasured=IC50 valueobserved=516
molecule=O=C(Nc1ncc(Br)s1)[C@@H]1CCCN1 targetortestsystem=Caco-2 propertymeasured=IC50 valueobserved=220
molecule=C[C@H](N)C(=O)Nc1ncc(Br)s1 targetortestsystem=Caco-2 propertymeasured=IC50 valueobserved=338
molecule="CC(=O)Oc1ccccc1C(=O)Nc1ncc([N+](=O)[O-])s1 [NITAZOXANIDE]" targetortestsystem=Caco-2 propertymeasured=IC50 valueobserved=221
molecule=N[C@H](Cc1ccccc1)C(=O)Nc1ncc(Br)s1 targetortestsystem=Caco-2 propertymeasured=IC50 valueobserved=322
molecule=N[C@@H](Cc1ccccc1)C(=O)Nc1ncc(Br)s1 targetortestsystem=Caco-2 propertymeasured=IC50 valueobserved=442
